From: patent US5849890

Target: human follicle stimulating hormone (hFSH) (Homo sapiens, UniProt P01215;P01225 P01215:25-116,P01225:19-129)
Sequence (P01215 25-116, chain 1 of 2): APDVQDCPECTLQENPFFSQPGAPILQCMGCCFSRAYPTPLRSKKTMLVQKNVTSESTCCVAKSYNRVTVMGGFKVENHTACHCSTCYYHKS
Sequence (P01225 19-129, chain 2 of 2): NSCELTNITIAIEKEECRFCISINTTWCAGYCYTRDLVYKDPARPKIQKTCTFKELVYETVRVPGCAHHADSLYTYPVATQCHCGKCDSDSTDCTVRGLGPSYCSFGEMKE
Assay: filter
Details: tags: Becton Dickinson; chain copies: alpha/beta heterodimer (inferred); label: 32P; possible hairpin; no G4 by RNase T1
pKd: −log10 of the molar value.
metric: pKd

Entry T-15 (ssRNA, 2'-NH2 all pyrimidines) RNA: GGGAGGACGAUGCGGAUGUUGGCAGCAGGGUCCGACGGCGUAACCUUGCCAGCUGCAGACGACUCGCCCGA has what pKd?
~6.70
